This section presents sequences with their documented self-aminoacylation values.
- System: biotinyl-Trp-oxazolone
- protocol: self-aminoacylation, catalytic enhancement (BWO) (fold over background); higher = more active; k-Seq, kA / k0A0; sequences stand for … in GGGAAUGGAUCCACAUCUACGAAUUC…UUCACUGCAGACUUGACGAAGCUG
Variants at the floor of the assay were thinned out.
Could you keep your reply to the number by itself?

These solved cases illustrate the format of a correct answer.
Problem: Any idea what self-aminoacylation was measured for CCACACUUCAAACAAUCGGUC [Fam1B.1 aminoacylation ribozyme variant] ?
Solution: 47

Problem: Any idea what self-aminoacylation was measured for CUACUUCAACCAAUCGGCCUG [Fam1A.1 aminoacylation ribozyme variant] ?
Solution: 42.2

Problem: Any idea what self-aminoacylation was measured for CCACACCUCAAGCAAUUGGUC [Fam1B.1 aminoacylation ribozyme variant] ?
Solution: 0.738

Problem: Any idea what self-aminoacylation was measured for AAGUUUGCUAAUAGCCGCGAG [Fam3.1 aminoacylation ribozyme variant] ?
Solution: 1.01

Problem: Any idea what self-aminoacylation was measured for CCACACGUCAAGCGAUCGGUC [Fam1B.1 aminoacylation ribozyme variant] ?
Solution: 1.61

***
Problem: Any idea what self-aminoacylation was measured for AUUACCCUGGUCAGCGAGUGA [Fam2.1 aminoacylation ribozyme variant] ?
Solution: 5.36

Problem: Any idea what self-aminoacylation was measured for AUUGCCAUGGUCAUCGAGUGA [Fam2.1 aminoacylation ribozyme variant] ?
Solution: 11.6
